binders and their reported glycan array binding signal (z-score)
- subject.of.test: Gal(b1-4)GlcNAc(b1-6)Gal(b1-4)GlcNAc
- experiment: glycan array binding signal (z-score within array); higher = stronger binding
- condition.info: glycan notation: IUPAC condensed, linker removed
Shown is part of a subset that was picked to be rich in the strongest signals.

- binder: "Epa23 (Candida glabrata) (protein) MGSSHHHHHHSSGLVPRGSHMIPNPFEGTINNFPSGCSPNHGLYNRGLTMELYNYSYIHPQSIQSYFNTSTLKKMEKGQCWDPSYLDVNYPRTGYKTHNRFAKVNGIDGILDFEFNPTRSCVPSKGQLPQNYNYPLQFTLSNFTMLLYGYFKPKVTAKHTFTIFADDLLFLNFGAGNAFDCCQQQDTIDDFGNYQAYALWGSDTQQNTLTVNLDANIYYPIRMFYNNRDFKGALNMYFTTDESNTKINDFSGYLFNIPDSSEGCPAHISYETECGNVSG"
  glycan array binding signal (z-score): 1.43
- binder: "RS2L (Ralstonia solanacearum), B5RXL5_RALSO (protein) MAQQGVFTLPANTSFGVTAFANAANTQTIQVLVDNVVKATFTGSGTSDKLLGSQVLNSGSGAIKIQVSVNGKPSDLVSNQTILANKLNFAMVGSEDGTDNDYNDGIAVLNWPLG"
  glycan array binding signal (z-score): -0.255
- binder: "CBM32-5 (Clostridium perfringens) (protein) MGSSHHHHHHSSGLVPRGSHMASALPQGNMKATATSEHPDVGNEGLAKFAIDGKENTIWHTKYNPVEELPQSITLELGGSYEINKFTYLPRSGAKNGNITKYELHVSEDGNNFRKISEGNWDDSGSLKTLKFNSTKATHVKLVALEGVGGFASAAELNVFA"
  glycan array binding signal (z-score): 0.749
- binder: "FimA-N3 (Actinomyces oris) (protein) MHHHHHHSSGVDLGTENLYFQSNAGLQGAQFQLYKAKNAYANTCSNEKEGAPIAINGQTTLTTDAQGAIDIKGLFISDSIDGADRDNQVNAMERCYVLVETKAPAGYVLPAGNGAATPVKVKAGEETTDN"
  glycan array binding signal (z-score): -0.237
- binder: "PEB1 (Campylobacter jejuni), Q0P9X8 (protein) MVFRKSLLKLAVFALGACVAFSNANAAEGKLESIKSKGQLIVGVKNDVPHYALLDQATGEIKGFEVDVAKLLAKSILGDDKKIKLVAVNAKTRGPLLDNGSVDAVIATFTITPERKRIYNFSEPYYQDAIGLLVLKEKKYKSLADMKGANIGVAQAATTKKAIGEAAKKIGIDVKFSEFPDYPSIKAALDAKRVDAFSVDKSILLGYVDDKSEILPDSFEPQSYGIVTKKDDPAFAKYVDDFVKEHKNEIDALAKKWGL"
  glycan array binding signal (z-score): -1.39
- binder: "F17-L (Escherichia coli) (protein) GPDDYVPSQIAVNTSTLPGVVIGPADAHTYPRVIGELAGTSNQYVFNGGAIALMRGKFTPALPKIGSITYTFHQGNSRDSSDFDIYDIGVSGLGIIIGMAGYWPATPLVPINSSGIYIDPVGANTNPNTYNGATASFGARLFVAFVATGRLPNGYITIPTRQLGTILLEAKRTSLNNKGLTAPVMLNGGRIQVQSQTHHHHHH"
  glycan array binding signal (z-score): -0.156
